Cited source: paper PMC7961380

Assay Overview: Metabolic stability, pooled human liver microsome incubations
Condition Info: pHLM, 6 min
Test Readout: % parent compound remaining, Average (%)
Report the figure in % without appending any unit label.

>  <Compound>
C=CCCCn1cc(C(=O)N[C@@H](C(=O)OC)C(C)(C)C)c2ccccc21 [(R)-MDMB-4en-PICA (12)]

>  <% parent compound remaining, Average / %>
47.7

$$$$
>  <Compound>
C=CCCCn1nc(C(=O)N[C@@H](C(=O)OC)C(C)(C)C)c2ccccc21 [(R)-MDMB-4en-PINACA (5)]

>  <% parent compound remaining, Average / %>
48.2

$$$$
>  <Compound>
COC(=O)C(NC(=O)c1nn(Cc2ccc(F)cc2)c2ccccc12)C(C)C (stereo in doubt) [(R)-AMB-FUBINACA (1)]

>  <% parent compound remaining, Average / %>
46.7

$$$$
>  <Compound>
COC(=O)[C@H](NC(=O)c1cn(CCCCCF)c2ccccc12)C(C)(C)C [(R)-5F-MDMB-PICA (3)]

>  <% parent compound remaining, Average / %>
62.5

$$$$
>  <Compound>
COC(=O)[C@@H](NC(=O)c1nn(CCCCCF)c2ccccc12)C(C)(C)C [(S)-5F-MDMB-PINACA (2)]

>  <% parent compound remaining, Average / %>
51.7

$$$$

Given the entry CC(C)[C@@H](NC(=O)c1nn(Cc2ccc(F)cc2)c2ccccc12)C(N)=O [(R)-AB-FUBINACA (8)] , report its measured % parent compound remaining, Average.
90.5

Given the entry COC(=O)[C@@H](NC(=O)c1cn(CCCCCF)c2ccccc12)C(C)(C)C [(S)-5F-MDMB-PICA (3)] , report its measured % parent compound remaining, Average.
56.3

Given the entry COC(=O)C(NC(=O)c1cn(CC2CCCCC2)c2ccccc12)C(C)C (stereo in doubt) [(R)-AMB-CHMICA (9)] , report its measured % parent compound remaining, Average.
53.6

Given the entry C=CCCCn1nc(C(=O)N[C@H](C(=O)OC)C(C)(C)C)c2ccccc21 [(S)-MDMB-4en-PINACA (5)] , report its measured % parent compound remaining, Average.
52.7

Given the entry COC(=O)[C@@H](NC(=O)c1nn(Cc2ccc(F)cc2)c2ccccc12)C(C)(C)C [(S)-MDMB-FUBINACA (6)] , report its measured % parent compound remaining, Average.
64.2
